# subject of test: MurA (UniProt Q3YX52)
# Sequence (Q3YX52 whole entry): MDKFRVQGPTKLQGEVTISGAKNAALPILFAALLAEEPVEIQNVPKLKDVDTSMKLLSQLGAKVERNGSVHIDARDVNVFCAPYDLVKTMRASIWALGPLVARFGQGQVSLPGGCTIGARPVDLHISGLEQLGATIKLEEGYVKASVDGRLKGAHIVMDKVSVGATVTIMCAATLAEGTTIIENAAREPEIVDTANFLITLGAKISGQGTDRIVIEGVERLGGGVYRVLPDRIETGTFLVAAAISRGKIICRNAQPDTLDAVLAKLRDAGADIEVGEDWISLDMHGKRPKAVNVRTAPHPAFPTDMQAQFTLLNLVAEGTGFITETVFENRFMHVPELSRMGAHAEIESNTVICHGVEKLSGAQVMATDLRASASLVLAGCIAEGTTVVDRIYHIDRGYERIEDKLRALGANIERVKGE
# assay: relative enzymatic activity vs untreated control (fraction); higher = less inhibition
# experimental setup: 100 µM; incubation time: 2 h at 37 C
property name: relative enzymatic activity

{"given smiles": "CN(C)[C@@H]1C(=O)[C@@H](C(N)=O)C(=O)[C@@]2(O)C(=O)[C@H]3C(=O)c4c(O)ccc(Cl)c4[C@@](C)(O)[C@H]3C[C@@H]12", "subject of test": "MurA (UniProt Q3YX52)", "measured value": 0.617}
{"given smiles": "Cc1c(N)nc([C@H](CC(N)=O)NC[C@@H](N)C(N)=O)nc1C(=O)N[C@H](C(=O)N[C@@H](C)[C@H](O)[C@@H](C)C(=O)N[C@@H](C(=O)NCCc1nc(-c2nc(C(=O)NCCC[S+](C)C)cs2)cs1)[C@@H](C)O)[C@@H](O[C@H]1O[C@H](CO)[C@H](O)[C@@H](O)[C@H]1O[C@H]1O[C@H](CO)[C@@H](O)[C@H](OC(N)=O)[C@@H]1O)c1c[nH]cn1", "subject of test": "MurA (UniProt Q3YX52)", "measured value": 0.863}
{"given smiles": "O=[N+]([O-])c1ccc(N(CCO)CCO)c2c1no[n+]2[O-]", "subject of test": "MurA (UniProt Q3YX52)", "measured value": 0.106}
{"given smiles": "CN(C)[C@@H]1C(=O)C(C(N)=O)=C(O)[C@@]2(O)C(O)=C3C(=O)c4c(O)cccc4[C@](C)(O)[C@H]3C[C@@H]12", "subject of test": "MurA (UniProt Q3YX52)", "measured value": 0.144}

* * *

# subject of test: DNA ligase (UniProt B1XA82)
# Sequence (B1XA82 whole entry): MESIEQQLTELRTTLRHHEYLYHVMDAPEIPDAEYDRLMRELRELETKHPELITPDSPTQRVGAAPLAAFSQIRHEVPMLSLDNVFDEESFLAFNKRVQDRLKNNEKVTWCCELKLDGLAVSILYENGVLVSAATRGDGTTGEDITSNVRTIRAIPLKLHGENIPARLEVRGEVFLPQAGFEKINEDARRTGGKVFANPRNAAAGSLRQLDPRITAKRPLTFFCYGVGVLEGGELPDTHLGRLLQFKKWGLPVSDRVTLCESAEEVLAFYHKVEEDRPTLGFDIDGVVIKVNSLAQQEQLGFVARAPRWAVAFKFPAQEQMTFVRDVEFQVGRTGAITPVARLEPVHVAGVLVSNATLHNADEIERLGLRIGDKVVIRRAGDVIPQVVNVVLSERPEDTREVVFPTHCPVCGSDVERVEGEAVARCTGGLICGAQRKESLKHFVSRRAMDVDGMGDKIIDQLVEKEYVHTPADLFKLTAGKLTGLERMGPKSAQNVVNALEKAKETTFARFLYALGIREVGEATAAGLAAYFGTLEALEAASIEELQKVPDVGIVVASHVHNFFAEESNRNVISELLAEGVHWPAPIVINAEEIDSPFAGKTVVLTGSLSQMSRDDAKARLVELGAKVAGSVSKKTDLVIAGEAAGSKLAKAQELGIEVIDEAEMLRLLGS
# assay: relative enzymatic activity vs untreated control (fraction); higher = less inhibition
# experimental setup: 100 µM; incubation time: 2 h at 37 C
property name: relative enzymatic activity

{"given smiles": "O=S(=O)(O)O.Oc1cccc2cccnc12", "property name": "relative enzymatic activity", "measured value": 1.05}
{"given smiles": "Cc1c(N)nc([C@H](CC(N)=O)NC[C@@H](N)C(N)=O)nc1C(=O)N[C@H](C(=O)N[C@@H](C)[C@H](O)[C@@H](C)C(=O)N[C@@H](C(=O)NCCc1nc(-c2nc(C(=O)NCCC[S+](C)C)cs2)cs1)[C@@H](C)O)[C@@H](O[C@H]1O[C@H](CO)[C@H](O)[C@@H](O)[C@H]1O[C@H]1O[C@H](CO)[C@@H](O)[C@H](OC(N)=O)[C@@H]1O)c1c[nH]cn1", "property name": "relative enzymatic activity", "measured value": 1.26}
{"given smiles": "CN(C)[C@@H]1C(=O)[C@H](C(N)=O)C(=O)[C@@]2(O)C(=O)[C@@H]3C(=O)c4c(O)cccc4[C@@](C)(O)[C@H]3C[C@@H]12", "property name": "relative enzymatic activity", "measured value": 0.943}

* * *

# Test system: RNA polymerase
# assay: relative enzymatic activity vs untreated control (fraction); higher = less inhibition
# experimental setup: 100 µM; incubation time: 2 h at 37 C
property name: relative enzymatic activity

{"compound": "CNC1C(O)C(OC2C(N)CC(N)C(OC3OC(C(C)O)C(O)C(O)C3N)C2O)OCC1(C)O (centres undefined)", "subject of test": "RNA polymerase", "property name": "relative enzymatic activity", "measured value": 0.879}
{"compound": "CN(C)[C@@H]1C(=O)[C@@H](C(N)=O)C(=O)[C@@]2(O)C(=O)[C@H]3C(=O)c4c(O)ccc(Cl)c4[C@@](C)(O)[C@H]3C[C@@H]12", "subject of test": "RNA polymerase", "property name": "relative enzymatic activity", "measured value": 0.739}
{"compound": "CN(C)[C@@H]1C(=O)[C@H](C(N)=O)C(=O)[C@@]2(O)C(=O)[C@@H]3C(=O)c4c(O)cccc4[C@@](C)(O)[C@H]3C[C@@H]12", "subject of test": "RNA polymerase", "property name": "relative enzymatic activity", "measured value": 0.736}
{"compound": "[O-][n+]1ccccc1[S][Zn][S]c1cccc[n+]1[O-]", "subject of test": "RNA polymerase", "property name": "relative enzymatic activity", "measured value": 0.954}

* * *

# subject of test: DNA polymerase (UniProt P10443)
# Sequence (P10443 whole entry): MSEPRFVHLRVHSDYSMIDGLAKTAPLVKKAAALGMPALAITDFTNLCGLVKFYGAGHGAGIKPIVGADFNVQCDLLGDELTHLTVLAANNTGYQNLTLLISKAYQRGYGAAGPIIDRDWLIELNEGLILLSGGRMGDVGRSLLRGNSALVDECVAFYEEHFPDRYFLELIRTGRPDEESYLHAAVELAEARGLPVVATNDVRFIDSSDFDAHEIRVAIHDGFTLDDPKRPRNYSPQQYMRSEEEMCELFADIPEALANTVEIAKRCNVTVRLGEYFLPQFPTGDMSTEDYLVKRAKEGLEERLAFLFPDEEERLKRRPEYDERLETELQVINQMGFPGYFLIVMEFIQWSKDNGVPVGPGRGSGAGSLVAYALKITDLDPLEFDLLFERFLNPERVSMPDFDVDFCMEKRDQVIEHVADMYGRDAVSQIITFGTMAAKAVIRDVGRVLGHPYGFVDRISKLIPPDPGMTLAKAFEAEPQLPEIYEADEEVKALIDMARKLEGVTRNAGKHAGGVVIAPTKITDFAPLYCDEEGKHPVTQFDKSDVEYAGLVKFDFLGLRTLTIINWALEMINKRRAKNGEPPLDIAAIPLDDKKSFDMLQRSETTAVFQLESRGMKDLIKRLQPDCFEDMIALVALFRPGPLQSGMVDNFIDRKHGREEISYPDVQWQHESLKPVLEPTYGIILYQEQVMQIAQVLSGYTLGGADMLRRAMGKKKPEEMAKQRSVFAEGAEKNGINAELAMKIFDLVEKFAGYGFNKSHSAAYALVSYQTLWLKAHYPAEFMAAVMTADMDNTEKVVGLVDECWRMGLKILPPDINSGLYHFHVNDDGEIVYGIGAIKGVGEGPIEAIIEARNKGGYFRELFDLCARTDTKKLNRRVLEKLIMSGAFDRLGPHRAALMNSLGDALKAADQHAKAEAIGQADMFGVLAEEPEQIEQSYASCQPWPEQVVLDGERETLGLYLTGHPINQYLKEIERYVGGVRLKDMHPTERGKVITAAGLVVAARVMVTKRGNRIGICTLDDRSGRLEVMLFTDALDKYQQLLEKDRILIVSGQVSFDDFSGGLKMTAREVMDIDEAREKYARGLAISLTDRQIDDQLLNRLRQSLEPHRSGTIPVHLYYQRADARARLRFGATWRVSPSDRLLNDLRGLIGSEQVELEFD
# assay: relative enzymatic activity vs untreated control (fraction); higher = less inhibition
# experimental setup: 100 µM; incubation time: 2 h at 37 C
property name: relative enzymatic activity

{"compound": "CN(C)[C@@H]1C(=O)C(C(N)=O)=C(O)[C@@]2(O)C(O)=C3C(=O)c4c(O)cccc4[C@](C)(O)[C@H]3C[C@@H]12", "property name": "relative enzymatic activity", "measured value": 1.11}
{"compound": "CCn1cc(C(=O)[O-])c(=O)c2cc3c(cc21)OCO3.[K+]", "property name": "relative enzymatic activity", "measured value": 1.08}
{"compound": "CCCCCCCCCCCCCCCC[n+]1ccccc1.[Cl-]", "property name": "relative enzymatic activity", "measured value": 0.0538}
{"compound": "Cc1c(N)nc([C@H](CC(N)=O)NC[C@@H](N)C(N)=O)nc1C(=O)N[C@H](C(=O)N[C@@H](C)[C@H](O)[C@@H](C)C(=O)N[C@@H](C(=O)NCCc1nc(-c2nc(C(=O)NCCC[S+](C)C)cs2)cs1)[C@@H](C)O)[C@@H](O[C@H]1O[C@H](CO)[C@H](O)[C@@H](O)[C@H]1O[C@H]1O[C@H](CO)[C@@H](O)[C@H](OC(N)=O)[C@@H]1O)c1c[nH]cn1", "property name": "relative enzymatic activity", "measured value": 0.485}
{"compound": "CNC1C(O)C(OC2C(N)CC(N)C(OC3OC(C(C)O)C(O)C(O)C3N)C2O)OCC1(C)O (configuration not stated)", "property name": "relative enzymatic activity", "measured value": 1.37}
{"compound": "Cn1ncnc2c(=O)n(C)c(=O)nc1-2", "property name": "relative enzymatic activity", "measured value": 0.994}
{"compound": "COP(=S)(OC)Oc1cc(Cl)c(Cl)cc1Cl", "property name": "relative enzymatic activity", "measured value": 1.39}

* * *

# subject of test: MurD (UniProt P14900)
# Sequence (P14900 whole entry): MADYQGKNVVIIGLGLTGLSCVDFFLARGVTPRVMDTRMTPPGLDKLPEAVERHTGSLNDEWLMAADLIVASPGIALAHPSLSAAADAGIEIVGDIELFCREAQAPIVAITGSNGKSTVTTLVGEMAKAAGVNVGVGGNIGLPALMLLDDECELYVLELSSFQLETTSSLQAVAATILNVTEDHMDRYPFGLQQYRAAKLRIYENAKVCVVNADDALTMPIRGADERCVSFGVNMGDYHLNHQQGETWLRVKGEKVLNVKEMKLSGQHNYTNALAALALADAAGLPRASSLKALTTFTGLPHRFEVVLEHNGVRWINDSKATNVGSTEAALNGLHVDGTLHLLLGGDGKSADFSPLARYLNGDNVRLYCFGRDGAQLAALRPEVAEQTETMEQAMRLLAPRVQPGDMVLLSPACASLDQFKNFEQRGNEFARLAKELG
# assay: relative enzymatic activity vs untreated control (fraction); higher = less inhibition
# experimental setup: 100 µM; incubation time: 2 h at 37 C
Binary classification by relative enzymatic activity, with 0.6 as an inclusive lower bound for TRUE; all other cases are FALSE.

{"given smiles": "Cc1c(N)nc([C@H](CC(N)=O)NC[C@@H](N)C(N)=O)nc1C(=O)N[C@H](C(=O)N[C@@H](C)[C@H](O)[C@@H](C)C(=O)N[C@@H](C(=O)NCCc1nc(-c2nc(C(=O)NCCC[S+](C)C)cs2)cs1)[C@@H](C)O)[C@@H](O[C@H]1O[C@H](CO)[C@H](O)[C@@H](O)[C@H]1O[C@H]1O[C@H](CO)[C@@H](O)[C@H](OC(N)=O)[C@@H]1O)c1cnc[nH]1", "subject of test": "MurD (UniProt P14900)", "label": "TRUE"}
{"given smiles": "CCCCCCCCCCCCCCCC[N+](C)(C)C.[Br-]", "subject of test": "MurD (UniProt P14900)", "label": "FALSE"}
{"given smiles": "C[CH2][Hg][S]c1ccccc1C(=O)[O-].[Na+]", "subject of test": "MurD (UniProt P14900)", "label": "TRUE"}

* * *

# subject of test: DNA helicase (UniProt P0ACB1)
# Sequence (P0ACB1 whole entry): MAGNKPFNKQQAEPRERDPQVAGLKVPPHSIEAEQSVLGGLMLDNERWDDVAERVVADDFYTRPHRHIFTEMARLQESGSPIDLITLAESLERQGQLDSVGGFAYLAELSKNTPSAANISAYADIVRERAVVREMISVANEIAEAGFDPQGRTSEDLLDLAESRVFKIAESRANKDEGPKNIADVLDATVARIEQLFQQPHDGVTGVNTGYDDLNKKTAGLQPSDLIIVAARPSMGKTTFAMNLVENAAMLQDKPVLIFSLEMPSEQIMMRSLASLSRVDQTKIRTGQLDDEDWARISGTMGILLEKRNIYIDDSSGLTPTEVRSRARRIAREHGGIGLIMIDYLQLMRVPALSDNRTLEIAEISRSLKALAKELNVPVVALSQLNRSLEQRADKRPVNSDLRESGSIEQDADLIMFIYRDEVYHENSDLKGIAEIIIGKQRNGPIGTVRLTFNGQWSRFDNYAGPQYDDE
# assay: relative enzymatic activity vs untreated control (fraction); higher = less inhibition
# experimental setup: 100 µM; incubation time: 2 h at 37 C
# label = True if relative enzymatic activity >= 0.5 else False

{"given smiles": "[O-][n+]1ccccc1[S][Zn][S]c1cccc[n+]1[O-]", "subject of test": "DNA helicase (UniProt P0ACB1)", "label": "True"}
{"given smiles": "Cc1nc2c(=O)n(C)c(=O)nc-2n(C)n1", "subject of test": "DNA helicase (UniProt P0ACB1)", "label": "True"}
{"given smiles": "CC(=O)Oc1ccc(Cl)c2cccnc12", "subject of test": "DNA helicase (UniProt P0ACB1)", "label": "True"}
{"given smiles": "O=S(=O)(O)O.Oc1cccc2cccnc12", "subject of test": "DNA helicase (UniProt P0ACB1)", "label": "True"}
{"given smiles": "CC(=O)[O][Hg][c]1ccccc1", "subject of test": "DNA helicase (UniProt P0ACB1)", "label": "False"}
{"given smiles": "CN(C)[C@@H]1C(=O)[C@@H](C(N)=O)C(=O)[C@@]2(O)C(=O)[C@H]3C(=O)c4c(O)ccc(Cl)c4[C@@](C)(O)[C@H]3C[C@@H]12", "subject of test": "DNA helicase (UniProt P0ACB1)", "label": "False"}
{"given smiles": "CCCCCCCCCCCCCCCC[N+](C)(C)C.[Br-]", "subject of test": "DNA helicase (UniProt P0ACB1)", "label": "False"}
{"given smiles": "C[CH2][Hg][S]c1ccccc1C(=O)[O-].[Na+]", "subject of test": "DNA helicase (UniProt P0ACB1)", "label": "True"}
{"given smiles": "COP(=S)(OC)Oc1cc(Cl)c(Cl)cc1Cl", "subject of test": "DNA helicase (UniProt P0ACB1)", "label": "False"}
